- experimental system: MET (Homo sapiens, UniProt P08581)
- Sequence (P08581 25-1390): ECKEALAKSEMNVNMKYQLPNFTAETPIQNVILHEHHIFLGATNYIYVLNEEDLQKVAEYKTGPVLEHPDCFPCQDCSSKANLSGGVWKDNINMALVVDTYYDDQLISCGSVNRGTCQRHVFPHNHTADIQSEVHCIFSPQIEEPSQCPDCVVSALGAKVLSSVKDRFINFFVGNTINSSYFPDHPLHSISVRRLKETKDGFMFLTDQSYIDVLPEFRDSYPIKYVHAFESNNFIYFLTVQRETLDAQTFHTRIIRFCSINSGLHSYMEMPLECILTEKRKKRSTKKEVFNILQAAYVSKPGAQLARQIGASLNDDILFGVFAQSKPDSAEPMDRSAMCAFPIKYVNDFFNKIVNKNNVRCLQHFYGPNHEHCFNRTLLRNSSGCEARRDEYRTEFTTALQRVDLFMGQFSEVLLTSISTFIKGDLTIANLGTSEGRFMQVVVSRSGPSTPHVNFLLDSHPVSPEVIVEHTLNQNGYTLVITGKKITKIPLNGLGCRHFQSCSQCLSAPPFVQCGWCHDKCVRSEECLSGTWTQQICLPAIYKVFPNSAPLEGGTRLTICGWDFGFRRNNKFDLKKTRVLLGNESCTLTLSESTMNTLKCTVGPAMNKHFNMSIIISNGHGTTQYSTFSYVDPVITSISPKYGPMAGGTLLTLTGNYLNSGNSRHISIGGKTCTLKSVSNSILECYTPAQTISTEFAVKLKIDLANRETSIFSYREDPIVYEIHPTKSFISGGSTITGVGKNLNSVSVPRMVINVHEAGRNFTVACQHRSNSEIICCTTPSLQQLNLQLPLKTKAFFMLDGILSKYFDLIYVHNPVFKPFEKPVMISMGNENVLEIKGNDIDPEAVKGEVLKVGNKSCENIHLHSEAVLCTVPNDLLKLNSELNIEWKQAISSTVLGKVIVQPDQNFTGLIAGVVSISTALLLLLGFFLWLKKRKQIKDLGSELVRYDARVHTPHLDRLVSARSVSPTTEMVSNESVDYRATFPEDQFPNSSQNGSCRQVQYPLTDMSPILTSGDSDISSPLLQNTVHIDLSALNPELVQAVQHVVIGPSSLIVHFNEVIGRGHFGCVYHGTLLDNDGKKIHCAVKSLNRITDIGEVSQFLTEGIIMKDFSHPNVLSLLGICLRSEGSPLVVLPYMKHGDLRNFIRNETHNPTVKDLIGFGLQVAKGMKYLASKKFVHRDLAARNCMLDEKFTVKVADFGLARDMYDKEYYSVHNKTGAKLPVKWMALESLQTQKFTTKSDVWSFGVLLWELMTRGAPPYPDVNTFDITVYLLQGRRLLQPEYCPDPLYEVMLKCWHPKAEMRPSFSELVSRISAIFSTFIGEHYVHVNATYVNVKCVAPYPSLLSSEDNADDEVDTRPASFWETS
- test: Test B: inhibition of the autophosphorylation of MET, ELISA technique (pppY1230,1234,1235) in MKN45 cells
- Assay type: cell-based
- Parameters: endogenous in cells; host or cells: MKN45 cells
- condition label: 1 h treatment, phosphoMET ELISA
reported endpoint: IC50

These recorded examples may help you get a feel for the data.
structure string	IC50
O=C(Nc1nc2ccc(Sc3nnc4ccccn34)cc2s1)C1CC1	> 500 nM
O=C(Nc1nc2ccc(Sc3nnc4ccc(-c5cnn(C6CCNCC6)c5)cn34)cc2s1)C1CC1	< 100 nM
Cc1ccc(-c2ccc3nnc(Sc4ccc5nc(NC(=O)C6CC6)sc5c4)n3c2)cc1F	< 100 nM

Check the records and state IC50 for Cn1cc(-c2ccc3nnc(Sc4ccc5nc(N)sc5c4)n3c2)cn1 > 500 nM

Check the records and state IC50 for O=C(Nc1nc2ccc(Sc3nnc4ccc(-c5cn[nH]c5)cn34)cc2s1)C1CC1 < 100 nM

Check the records and state IC50 for CN1CCN(CCNC(=O)Nc2nc3ccc(Sc4nnc5ccccn45)cc3s2)CC1 < 100 nM

====

Structures can show the parent of a compound that is named as a salt.
reported endpoint: melting point

These recorded examples may help you get a feel for the data.
compound	reported endpoint	recorded result
Cc1ccc(-c2ccc3nnc(Sc4ccc5nc(NC(=O)C6CC6)sc5c4)n3c2)cc1F [Example 12]	melting point	191 °C
O=C(Nc1nc2ccc(Sc3nnc4ccc(-c5cn[nH]c5)cn34)cc2s1)C1CC1 [Example 11]	melting point	> 260 °C
Nc1nc2ccc(Sc3nnc4ccc(-c5ccc(F)cc5)cn34)cc2s1 [Example 7]	melting point	> 264 °C
O=C(Nc1nc2ccc(Sc3nnc4ccc(-c5cccc(F)c5)cn34)cc2s1)C1CC1 [Example 13]	melting point	> 260 °C
Nc1nc2ccc(Sc3nnc4ccccn34)cc2s1 [Example 1]	melting point	260 to 266 °C
O=C(NCCN1CCOCC1)Nc1nc2ccc(Sc3nnc4ccccn34)cc2s1 [Example 3]	melting point	204 to 207 °C

Check the records and state melting point for COCCNC(=O)Nc1nc2ccc(Sc3nnc4ccccn34)cc2s1 [Example 5] 252 to 257 °C

Check the records and state melting point for O=C(Nc1nc2ccc(Sc3nnc4ccccn34)cc2s1)C1CC1 [Example 2] 187 to 190 °C

Check the records and state melting point for O=C(Nc1nc2ccc(Sc3nnc4ccc(-c5cnn(C6CCNCC6)c5)cn34)cc2s1)C1CC1 (as salt: hydrochloride) [Example 16] > 260 °C

Check the records and state melting point for CN1CCN(CCNC(=O)Nc2nc3ccc(Sc4nnc5ccccn45)cc3s2)CC1 [Example 4] 180 to 185 °C

====

Listed here are compounds together with their documented IC50.
- Test system: HCT116 cells and MKN45 cells
- test: Test C: measurement of cell proliferation by 14C-thymidine pulse
- Assay type: cell-based
- condition label: 14C-thymidine incorporation, 96 h of treatment; cell line not given

These recorded examples may help you get a feel for the data.
compound	reported endpoint	recorded result
Cn1cc(-c2ccc3nnc(Sc4ccc5nc(N)sc5c4)n3c2)cn1	IC50	< 1 µM
O=C(Nc1nc2ccc(Sc3nnc4ccccn34)cc2s1)C1CC1	IC50	< 1 µM
O=C(Nc1nc2ccc(Sc3nnc4ccc(-c5cnn(CCOC6CCCCO6)c5)cn34)cc2s1)C1CC1 (stereo not drawn)	IC50	< 1 µM
O=C(NCCN1CCOCC1)Nc1nc2ccc(Sc3nnc4ccccn34)cc2s1	IC50	< 1 µM
COCCNC(=O)Nc1nc2ccc(Sc3nnc4ccccn34)cc2s1	IC50	< 1 µM

State measured IC50 of the compound Nc1nc2ccc(Sc3nnc4ccc(-c5ccc(F)cc5)cn34)cc2s1 with HCT116 cells and MKN45 cells. < 1 µM

State measured IC50 of the compound O=C(Nc1nc2ccc(Sc3nnc4ccc(-c5ccc(F)cc5)cn34)cc2s1)C1CC1 with HCT116 cells and MKN45 cells. < 1 µM

State measured IC50 of the compound O=C(Nc1nc2ccc(Sc3nnc4ccc(-c5cnn(C6CCNCC6)c5)cn34)cc2s1)C1CC1 with HCT116 cells and MKN45 cells. < 1 µM

State measured IC50 of the compound CN1CCN(CCNC(=O)Nc2nc3ccc(Sc4nnc5ccccn45)cc3s2)CC1 with HCT116 cells and MKN45 cells. < 1 µM

State measured IC50 of the compound Cc1ccc(-c2ccc3nnc(Sc4ccc5nc(NC(=O)C6CC6)sc5c4)n3c2)cc1F with HCT116 cells and MKN45 cells. < 1 µM

Cited source for all entries: patent US20110263594A1
